# System Name: PI3Kδ (p110δ/p85α) (Homo sapiens, UniProt O00329)
# Construct: purchased Millipore (Bedford, Mass.)
# Sequence (O00329 whole entry): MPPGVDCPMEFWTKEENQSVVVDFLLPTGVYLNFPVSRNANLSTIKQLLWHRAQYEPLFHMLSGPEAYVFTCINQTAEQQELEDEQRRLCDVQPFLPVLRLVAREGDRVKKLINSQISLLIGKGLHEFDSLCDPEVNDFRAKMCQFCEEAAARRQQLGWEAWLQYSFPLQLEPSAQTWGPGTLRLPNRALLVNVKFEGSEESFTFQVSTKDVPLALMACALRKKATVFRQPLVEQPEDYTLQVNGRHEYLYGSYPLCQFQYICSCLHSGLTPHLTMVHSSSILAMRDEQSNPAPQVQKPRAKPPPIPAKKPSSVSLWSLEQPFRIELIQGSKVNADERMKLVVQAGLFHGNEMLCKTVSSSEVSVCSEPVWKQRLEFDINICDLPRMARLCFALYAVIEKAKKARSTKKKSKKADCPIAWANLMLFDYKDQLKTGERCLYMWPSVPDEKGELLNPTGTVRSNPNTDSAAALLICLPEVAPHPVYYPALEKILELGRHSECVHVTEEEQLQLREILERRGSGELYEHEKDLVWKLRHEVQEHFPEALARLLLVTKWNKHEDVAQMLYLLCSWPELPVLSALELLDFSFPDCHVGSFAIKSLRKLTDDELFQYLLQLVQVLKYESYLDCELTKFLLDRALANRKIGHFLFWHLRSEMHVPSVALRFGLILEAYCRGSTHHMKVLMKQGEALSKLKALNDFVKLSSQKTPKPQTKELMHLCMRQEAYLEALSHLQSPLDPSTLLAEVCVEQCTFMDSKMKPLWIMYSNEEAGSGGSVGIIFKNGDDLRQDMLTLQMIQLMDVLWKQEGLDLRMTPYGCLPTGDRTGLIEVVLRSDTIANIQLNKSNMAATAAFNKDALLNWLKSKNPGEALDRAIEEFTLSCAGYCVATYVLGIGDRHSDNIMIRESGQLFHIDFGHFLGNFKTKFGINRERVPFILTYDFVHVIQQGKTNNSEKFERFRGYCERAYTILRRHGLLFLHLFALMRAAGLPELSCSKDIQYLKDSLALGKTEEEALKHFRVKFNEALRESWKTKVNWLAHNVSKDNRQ
# Sequence (P27986 whole entry partner): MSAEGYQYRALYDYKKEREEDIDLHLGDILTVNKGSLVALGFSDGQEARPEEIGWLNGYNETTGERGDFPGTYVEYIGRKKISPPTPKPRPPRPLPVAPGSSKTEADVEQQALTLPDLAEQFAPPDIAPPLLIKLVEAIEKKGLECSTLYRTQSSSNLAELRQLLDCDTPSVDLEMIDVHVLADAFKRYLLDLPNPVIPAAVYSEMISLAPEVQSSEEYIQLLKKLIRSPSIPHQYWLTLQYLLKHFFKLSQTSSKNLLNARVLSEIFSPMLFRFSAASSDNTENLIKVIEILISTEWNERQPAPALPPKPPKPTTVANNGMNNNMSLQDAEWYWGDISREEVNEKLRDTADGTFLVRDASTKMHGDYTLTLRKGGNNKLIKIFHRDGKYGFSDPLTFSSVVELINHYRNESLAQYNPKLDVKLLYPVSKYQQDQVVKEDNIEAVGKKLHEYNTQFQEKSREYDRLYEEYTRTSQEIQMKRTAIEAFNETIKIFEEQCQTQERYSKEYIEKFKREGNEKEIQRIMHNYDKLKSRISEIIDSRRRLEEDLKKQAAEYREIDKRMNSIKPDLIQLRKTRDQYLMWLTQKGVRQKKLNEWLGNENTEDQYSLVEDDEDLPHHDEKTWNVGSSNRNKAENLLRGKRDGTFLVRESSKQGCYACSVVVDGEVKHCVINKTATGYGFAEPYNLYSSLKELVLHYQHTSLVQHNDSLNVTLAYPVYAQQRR
# Procedure Text: PI3Kδ scintillation proximity assay
# Format: biochemical
pIC50: −log10 of the molar value.
The entries below come with measured pIC50 values attached.

[
  {
    "Molecule": "CC(Nc1ncnc2[nH]cnc12)c1cc(Cl)c2ccccc2c1N1CCC(O)CC1 (centres unmarked) [Example 45]",
    "System Name": "PI3Kδ (p110δ/p85α) (Homo sapiens, UniProt O00329)",
    "pIC50": "> 7.30"
  },
  {
    "Molecule": "CC(Nc1ncnc2[nH]cnc12)c1cc(Cl)c2cccnc2c1N1CCN(C(=O)c2ccc(F)cc2)CC1 (centres unmarked) [Example 91, bis(trifluoroacetate)]",
    "System Name": "PI3Kδ (p110δ/p85α) (Homo sapiens, UniProt O00329)",
    "pIC50": "6.60 to 7.00"
  },
  {
    "Molecule": "CC(Nc1ncnc2[nH]cnc12)c1cc(Cl)c2cccnc2c1N1CCC(F)(F)CC1 (centres unmarked) [Example 47]",
    "System Name": "PI3Kδ (p110δ/p85α) (Homo sapiens, UniProt O00329)",
    "pIC50": "6.00 to 6.30"
  },
  {
    "Molecule": "CC(Nc1ncnc2[nH]cnc12)c1cc(Cl)c2ccnnc2c1-c1ccnc(F)c1 (centres unmarked) [Example 42]",
    "System Name": "PI3Kδ (p110δ/p85α) (Homo sapiens, UniProt O00329)",
    "pIC50": "6.00 to 6.30"
  },
  {
    "Molecule": "CC(Nc1ncnc2[nH]cnc12)c1cc(F)c2ccnnc2c1-c1cccc(F)c1 (single isomer, unassigned) [Example 21]",
    "System Name": "PI3Kδ (p110δ/p85α) (Homo sapiens, UniProt O00329)",
    "pIC50": "< 6.00"
  },
  {
    "Molecule": "CC(Nc1ncnc2[nH]cnc12)c1ccc2ccccc2c1-c1cncc(F)c1 (centres unmarked) [Example 5]",
    "System Name": "PI3Kδ (p110δ/p85α) (Homo sapiens, UniProt O00329)",
    "pIC50": "> 7.30"
  },
  {
    "Molecule": "Cc1nc(C(C)Nc2ncnc3[nH]cnc23)c(-c2cccc(F)c2)c2ccccc12 (centres unmarked) [Example 44]",
    "System Name": "PI3Kδ (p110δ/p85α) (Homo sapiens, UniProt O00329)",
    "pIC50": "6.60 to 7.00"
  },
  {
    "Molecule": "CC(Nc1ncnc2[nH]cnc12)c1cc(Cl)c2cccnc2c1N1CCN(CC(=O)N(C)C)CC1 (centres unmarked) [Example 90, tris(trifluoroacetate)]",
    "System Name": "PI3Kδ (p110δ/p85α) (Homo sapiens, UniProt O00329)",
    "pIC50": "> 7.30"
  }
]

For the molecule shown here, CC(Nc1ncnc2[nH]cnc12)c1cc(Cl)c2cccnc2c1N1CCN(C(=O)c2ccccc2)CC1 (centres unmarked) [Example 89, bis(trifluoroacetate)] , give the reported pIC50.
7.00 to 7.30

For the molecule shown here, CC(=O)N1CCC(C(=O)N2CCN(c3c(C(C)Nc4ncnc5[nH]cnc45)cc(Cl)c4cccnc34)CC2)CC1 (centres unmarked) [Example 94, bis(trifluoroacetate)] , give the reported pIC50.
> 7.30

Reference for the values: patent US8680108B2
